Listing: Dréex of selected compounds
- protocol.text: Re-extraction of iodine from the loaded organic solvent into aqueous sodium hydroxide solution (distribution coefficient Dréex)
- Type: physicochemical
- study.conditions: soude 0,1 mol/L (10^-1 mol/L)

>  <compound>
CC(C)CCCCCCCCCCO [Isotridécanol, isotridécanol, reference compound]

>  <data.value>
0,028

$$$$
>  <compound>
CC(C)c1cccc(C(C)C)c1 [1,3-diisopropylbenzène]

>  <data.value>
2,3

$$$$
>  <compound>
CC(=O)CC(C)C [4-méthyl-1,2-pentanone, reference compound]

>  <data.value>
0,012

$$$$
>  <compound>
CCCCCCOc1ccccc1[N+](=O)[O-] [1,2-NPHE, 1,2-nitrophénylhexyléther]

>  <data.value>
5,7

$$$$
>  <compound>
CCCCOC(C)=O [Acétate de butyle, acétate de butyle, reference compound]

>  <data.value>
0,014

$$$$

Per the records, this compound ( CCCCCC(=O)O [Acide Hexanoique, acide hexanoïque, reference compound] ) has Dréex equal to 0,04

Per the record, CCCCCCc1ccccc1 [hexylbenzène] has Dréex of 11.6

Kindly note the recorded Dréex for CCCCCC [hexane] , which is 4,2

Lab note: measured Dréex of CCCCCCCCO [Octanol, octanol, reference compound] was 0,023

CCCCCCCCOc1ccccc1[N+](=O)[O-] [1,2-NPOE, 1,2-nitrophényloctyléther] has a reported Dréex of 1,7

====

- protocol.text: Liquid-liquid extraction of iodine from nitric acid solution into the organic solvent (distribution coefficient Dex, gamma spectrometry)
- Assay type: physicochemical
- study.conditions: first aqueous solution HNO3 3 mol/L, 125I 1500 kBq/L, equal volumes; ratio organic/aqueous iodine concentration at equilibrium
property.measured: coefficient de distribution Dex de l'iode

Below: 3 molecules and their reported coefficient de distribution Dex de l'iode.
>  <molecule>
CCCCCCc1ccccc1

>  <data.value>
2.7

$$$$
>  <molecule>
CC(=O)CC(C)C [4-méthyl-1,2-pentanone, reference compound]

>  <data.value>
9,1

$$$$
>  <molecule>
CC(C)CCCCCCCCCCO [Isotridécanol, isotridécanol, reference compound]

>  <data.value>
5,2

$$$$

Measured coefficient de distribution Dex de l'iode, CC(C)c1cccc(C(C)C)c1 : 2,3

So for CCCCCC(=O)O [Acide Hexanoique, acide hexanoïque, reference compound] , the logged coefficient de distribution Dex de l'iode turned out to be 4,1

====

- protocol.text: Liquid-liquid extraction of iodine from nitric acid solution into the organic solvent (distribution coefficient Dex, gamma spectrometry)
- Type: physicochemical
- study.conditions: first aqueous solution HNO3 3 mol/L, 125I 1500 kBq/L, equal volumes; ratio organic/aqueous iodine concentration at equilibrium
Form field: coefficient de distribution Dex de l'iode (one value per entry).

>  <compound>
CCCCCCOc1ccccc1[N+](=O)[O-]

>  <data.value>
3

$$$$
>  <compound>
CCCCCC

>  <data.value>
1,5

$$$$
>  <compound>
CCCCCCCCOc1ccccc1[N+](=O)[O-]

>  <data.value>
2,9

$$$$
>  <compound>
CCCCCCCCO [Octanol, octanol, reference compound]

>  <data.value>
8,7

$$$$

Next, consider the following compound.
Sample CCCCOC(C)=O [Acétate de butyle, acétate de butyle, reference compound] ; coefficient de distribution Dex de l'iode observed: 6,6
